Origin of the recorded values: patent US20080089862A1

target: T1, MBP-scNS3 (Hepatitis C virus genotype 1b, UniProt P26663); assay: In vitro fluorometric assay of NS3 protease catalysis inhibition; format: biochemical, Hepatitis C virus (HCV) genotype Ib; conditions: 100% minus % catalysis of FIG. 3B; 100 nM MBP-scNS3, 5 μM immobilized substrate, 2.4 or 1.2 μM MBP-scFv
T1 construct: made in house
result type: % inhibition (%)

1) scFv 11: NS3-inhibiting single-chain antibody, SEQ ID NO:10; MBP fusion SEQ ID NO:24 (protein, scFv inhibitor) scFv: EVQLQQSGAELVKPGASVKLSCTASGFNIKDYYMHWVKQRPGQGLEYIGRIYPGNGQTDYNGKFKGKATLTADKSSSTAYMQLSSLTSVDSAVYFCARGLFAYWGQGTLVTVSSGGGGSGGGGSGGGGSDVVMTQTPLSLPVSFGDQVSISCRSSQSLANSYGNTYLSWCLHKPGQSPQLLIYGISNRFSGVPDRFSGSGSGTDFTLKISTIKPEDLGMYYCLQGTHQPLTFGAGTKLEIKR : 52
